# System: UO-31 renal
# testDescription: NCI-60 one-dose screen, 48 h (100 = growth as untreated, 0 = no growth, -100 = all killed)
# conditionLabel: 10 µM unless noted
This is part of a sample that, as a whole, favours compounds with a hit. Of some 83,000 tested, about 20% had one in any assay.
Mark Met for growth under 80%, Not met if at or over.

{"columns": ["compound", "groupLabel"],
 "data": [
  ["COC(OC)C1=C(C)OC(N)=C(C#N)C12C(=O)Nc1ccccc12 (centres undefined)", "Met"],
  ["CC12CC[C@@H]3[C@]4(C)COC(c5cn[nH]c5-c5ccc(Br)cc5)O[C@@H]4CC[C@@]3(C)[C@@H]1CC(C1=CCOC1=O)O2 (some centres undefined)", "Met"],
  ["O=C(/C=C/c1ccc(-c2ccccc2)cc1)c1nc2ccccc2n1Cc1ccc(Br)cc1", "Met"],
  ["COc1ccc(-c2ccc(SCC(=O)NCCc3ccc(S(N)(=O)=O)cc3)nn2)cc1", "Met"],
  ["COc1ccc(NC(=O)Cn2c(O)c(N=Nc3ccc(S(N)(=O)=O)cc3)c3ccccc32)cc1", "Not met"]
]}

Consider the additional compound presented here.
Threshold test, growth < 80%: NS(=O)(=O)c1ccc(-n2cc(-c3cccc(NC(=O)c4ccc(Cl)c(C(F)(F)F)c4)c3)nn2)cc1
Met
